Tested on: HOP-62 NSCLC
ASSAY METHOD TEXT: NCI tumour cell line growth inhibition, 384-well format; in the data active = GI50 below about 0.43 µM; inactive = the rest
Choose one outcome from this list and give only that: Yes (active), No (inactive)

Below are worked cases with known answers.
* COc1ccc(-c2nc(N3CCOCC3)c3sc(CN(C)c4ncc(C(=O)NO)cn4)cc3n2)cn1 | Yes
* CS(=O)(=O)c1ccc(Oc2cc(F)cc(C#N)c2)c2c1[C@H](O)C(F)(F)C2 | No
* COc1nc(N)nc2c1ncn2[C@@H]1O[C@H](CO)[C@@H](O)[C@@H]1O | No

[Q] Entry `CCN(CC)CCCCNc1ncc2cc(-c3cc(OC)cc(OC)c3)c(NC(=O)NC(C)(C)C)nc2n1` : call = ?
[A] No

* * *

Quick reference: TGI of the listed items.
Test system: OVCAR-3 ovarian
ASSAY METHOD TEXT: NCI tumour cell line growth inhibition, 384-well format

• OCC1OC(n2cnc3c2NC=NC[C@H]3O)CC1O (some centres undefined) = > 100 µM
• COc1ccc(-c2nc(N3CCOCC3)c3sc(CN(C)c4ncc(C(=O)NO)cn4)cc3n2)cn1 = < 0.01 µM
• CCN(CC)CCCCNc1ncc2cc(-c3cc(OC)cc(OC)c3)c(NC(=O)NC(C)(C)C)nc2n1 = 14.5 µM

In the following, a different compound is considered.
[Q] Any idea what TGI came out for `CC(C)n1c(=O)n(C)c2cnc3cc(F)c(-c4ccc(OCCCN5CCCCC5)nc4)cc3c21` on OVCAR-3 ovarian?
[A] > 100 µM

* * *

Test system: NCI-H23 lung
ASSAY METHOD TEXT: NCI tumour cell line growth inhibition, 384-well format; in the data active = GI50 below about 0.43 µM; inactive = the rest
Return exactly one item of yes (1) for active, no (0) for inactive

• OCC1OC(n2cnc3c2NC=NC[C@H]3O)CC1O (some centres undefined) = no (0)
• COc1ccc(-c2nc(N3CCOCC3)c3sc(CN(C)c4ncc(C(=O)NO)cn4)cc3n2)cn1 = yes (1)
• CS(=O)(=O)c1ccc(Oc2cc(F)cc(C#N)c2)c2c1[C@H](O)C(F)(F)C2 = no (0)

Note: attention shifts to another entry.
[Q] Given `CCN(CC)CCCCNc1ncc2cc(-c3cc(OC)cc(OC)c3)c(NC(=O)NC(C)(C)C)nc2n1` , state the outcome it received in this test.
[A] no (0)

* * *

System: MDA-MB-435 melanoma
// one of active, inactive, no free text

* COc1ccc(-c2nc(N3CCOCC3)c3sc(CN(C)c4ncc(C(=O)NO)cn4)cc3n2)cn1 | active

[Q] Could you please tell me the result logged for `CC(C)n1c(=O)n(C)c2cnc3cc(F)c(-c4ccc(OCCCN5CCCCC5)nc4)cc3c21` in this assay?
[A] inactive

[Q] Entry to check: `CS(=O)(=O)c1ccc(Oc2cc(F)cc(C#N)c2)c2c1[C@H](O)C(F)(F)C2`
[A] inactive

[Q] Next entry: OCC1OC(n2cnc3c2NC=NC[C@H]3O)CC1O (some centres undefined)
[A] inactive

* * *

# key: entry, value: GI50
Test system: IGROV1 ovarian
ASSAY METHOD TEXT: NCI tumour cell line growth inhibition, 384-well format

Please review the entries below; each comes with its answer.
- CCN(CC)CCCCNc1ncc2cc(-c3cc(OC)cc(OC)c3)c(NC(=O)NC(C)(C)C)nc2n1: 3.56 µM
- CS(=O)(=O)c1ccc(Oc2cc(F)cc(C#N)c2)c2c1[C@H](O)C(F)(F)C2: > 100 µM
- OCC1OC(n2cnc3c2NC=NC[C@H]3O)CC1O (stereo not given in full): > 100 µM
- COc1nc(N)nc2c1ncn2[C@@H]1O[C@H](CO)[C@@H](O)[C@@H]1O: > 100 µM

Consider the record given below.
[Q] Field request: GI50 | item: `CC(C)n1c(=O)n(C)c2cnc3cc(F)c(-c4ccc(OCCCN5CCCCC5)nc4)cc3c21`
[A] > 100 µM
